B1: Peroxisome proliferator-activated receptor delta, residues 71 to 145; numbered along this chain, Q03181 (parent)
chain: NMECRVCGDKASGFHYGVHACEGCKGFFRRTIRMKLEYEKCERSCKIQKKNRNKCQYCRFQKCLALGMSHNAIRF

variants of: B1; assay: abundance fitness (aPCA) (normalised: wild type 0, dead -1); higher = more abundant; growth selection in yeast, the domain comes from the species named; settings: Homo sapiens
QUANTITY_NAME: abundance fitness
Output spec: single numeric token, no unit.

Examples from the recorded data:
S44W = -0.314
G67Y = -0.854
S44D = 0.055

Could you share which abundance fitness value was measured for N71V ?
-0.31

Also R30I , if possible.
-0.31

Also N71I , if possible.
-0.361

Cited source: the Human Domainome abundance scans (Beltran et al. 2025)
